System: Staphylococcus sp.
procedure summary: In vitro antibacterial evaluation: minimum inhibitory concentration (MIC), broth dilution method
Format: cell-based
measurement setup: Staphylococcus aureus (ATCC 29213); 18 hours at 35° C.
Reported MIC Staphylococcus aureus (ATCC 29213) values are given for each entry in this list.
measured endpoint: MIC Staphylococcus aureus (ATCC 29213) (mg/L)

# compound, test result
data = [
    ("CCOc1cc(COCC2OC(OC3C(CO)OC(Oc4ccc(CC5NC(=O)C(C(C)c6ccccc6)NC(=O)CNC(=O)C(CO)NC(=O)C(C(O)C6CNC(=N)N6C6OC(CO)C(O)C(O)C6O)NC(=O)C(C(O)C6CNC(=N)N6)NC5=O)cc4)C(O)C3O)C(O)C(O)C2O)ccc1OC (stereo not shown)", 4),
    ("CC=C(C)C(=O)OC1C(CO)OC(OC2C(CO)OC(Oc3ccc(CC4NC(=O)C(C(C)c5ccccc5)NC(=O)CNC(=O)C(CO)NC(=O)C(C(O)C5CNC(=N)N5C5OC(CO)C(O)C(O)C5O)NC(=O)C(C(O)C5CNC(=N)N5)NC4=O)cc3)C(O)C2O)C(O)C1O (stereo not shown) [Example 278b]", 8),
    ("COc1ccc(COCC2OC(OC3C(CO)OC(Oc4ccc(CC5NC(=O)C(C(C)c6ccccc6)NC(=O)CNC(=O)C(CO)NC(=O)C(C(O)C6CNC(=N)N6C6OC(CO)C(O)C(O)C6O)NC(=O)C(C(O)C6CNC(=N)N6)NC5=O)cc4)C(O)C3O)C(O)C(O)C2O)cc1 (stereo not shown)", 4),
    ("Cc1ccc(COCC2OC(OC3C(CO)OC(Oc4ccc(CC5NC(=O)C(C(C)c6ccccc6)NC(=O)CNC(=O)C(CO)NC(=O)C(C(O)C6CNC(=N)N6C6OC(CO)C(O)C(O)C6O)NC(=O)C(C(O)C6CNC(=N)N6)NC5=O)cc4)C(O)C3O)C(O)C(O)C2O)cc1 (stereo not shown)", 2),
]
